system: Escherichia coli TOP10; experiment: shrunken log2 fold change of peptide-encoding DNA abundance (4.5 h post-induction vs induction); higher = less antimicrobial activity (less host growth inhibition); details: time post-induction: 4.5 h; library: site-saturation at positions 5, 18, 19, 20
Recorded Endpoint: shrunken log2 fold change
Lab note: record the figure alone, no unit after it.

Take a look at these entries with their results.
[
  {
    "Chain Sequence": "RRIRARPPRLPRPRPRPHCRPRP",
    "shrunken log2 fold change": -0.0687
  },
  {
    "Chain Sequence": "RRIRMRPPRLPRPRPRPANFPRP",
    "shrunken log2 fold change": -0.000946
  },
  {
    "Chain Sequence": "RRIRIRPPRLPRPRPRPFYMPRP",
    "shrunken log2 fold change": -0.235
  }
]

Task item: Param request: shrunken log2 fold change | system Escherichia coli TOP10 | item RRIRRRPPRLPRPRPRPTGNPRP
Reply: 0.0381

Task item: Provide shrunken log2 fold change, system Escherichia coli TOP10, entry RRIRPRPPRLPRPRPRPPIFPRP
Reply: -0.246

Task item: Lab note: record shrunken log2 fold change of RRIRSRPPRLPRPRPRPKLNPRP tested on Escherichia coli TOP10.
Reply: -0.103

Task item: Write down the reported shrunken log2 fold change (system: Escherichia coli TOP10) of RRIRPRPPRLPRPRPRPQRPPRP
Reply: 0.272

Task item: Enter recorded shrunken log2 fold change with Escherichia coli TOP10 for RRIRFRPPRLPRPRPRPWDYPRP here.
Reply: -0.387

Task item: Jot down shrunken log2 fold change (Escherichia coli TOP10) of RRIRSRPPRLPRPRPRPMDNPRP .
Reply: -0.0175

Task item: Provide shrunken log2 fold change, system Escherichia coli TOP10, entry RRIRKRPPRLPRPRPRPPKSPRP
Reply: 0.462

Task item: Report the value of shrunken log2 fold change obtained on Escherichia coli TOP10 for RRIRNRPPRLPRPRPRPTEAPRP .
Reply: 0.21

Task item: Look up and report measured shrunken log2 fold change (Escherichia coli TOP10) for the following sequence: RRIRSRPPRLPRPRPRPWLEPRP
Reply: -0.0707

Task item: Write down the reported shrunken log2 fold change (system: Escherichia coli TOP10) of RRIRERPPRLPRPRPRPWMLPRP;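 further: peptides expressed intracellularly from a pBAD plasmid library in pooled LB shake-flask culture, induced with 0.3% L-arabinose, DNA abundance read by NGS, three biological replicates, DESeq2 with apeglm shrinkage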
Reply: -0.234

Task item: Write down measured shrunken log2 fold change (Escherichia coli TOP10) for this sequence. RRIRMRPPRLPRPRPRPMYYPRP
Reply: -0.339

Task item: Jot down shrunken log2 fold change (Escherichia coli TOP10) of RRIRDRPPRLPRPRPRPGIEPRP .
Reply: 0.103
